Just for reference, ChEMBL document CHEMBL2413018 is where these values come from.

Form field: pIC50 (one value per entry).
Biological target: Dihydrofolate reductase (Bos taurus, UniProt P00376)
Sequence (P00376 whole entry): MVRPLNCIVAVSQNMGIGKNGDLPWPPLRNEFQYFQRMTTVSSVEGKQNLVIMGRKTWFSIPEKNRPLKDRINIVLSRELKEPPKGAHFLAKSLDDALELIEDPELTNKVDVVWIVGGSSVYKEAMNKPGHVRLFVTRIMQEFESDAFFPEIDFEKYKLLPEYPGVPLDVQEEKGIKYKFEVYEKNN
Just the number, please; pIC50 means minus log10 of the concentration in mol/L.

MOL	TARGET ENTITY	pIC50
CC(=O)N(C(C)=O)c1nc(-c2nnc(S)n2-c2ccc(Oc3ccccc3)cc2)cs1	Dihydrofolate reductase (Bos taurus, UniProt P00376)	4.82
CC(=O)N(C(C)=O)c1nc(-c2nnc(S)n2-c2ccccc2)cs1	Dihydrofolate reductase (Bos taurus, UniProt P00376)	4.46
COc1ccccc1-n1c(S)nnc1-c1csc(N)n1	Dihydrofolate reductase (Bos taurus, UniProt P00376)	4.62

Prompt: Quick one: pIC50 for COc1ccc(-n2c(S)nnc2-c2csc(N(C(C)=O)C(C)=O)n2)c(OC)c1 ?
Response: 5.10

Prompt: Cc1ccc(-n2c(S)nnc2-c2csc(N)n2)cc1 , same question.
Response: 4.62

Prompt: What do you get for COc1ccc(-n2c(S)nnc2-c2csc(N(C(C)=O)C(C)=O)n2)cc1 ?
Response: 5.30

Prompt: Also, CC(=O)N(C(C)=O)c1nc(-c2nnc(S)n2-c2ccc(Cl)cc2)cs1 please.
Response: 5.00

Prompt: Record: Nc1nc(-c2nnc(S)n2-c2ccc(Cl)cc2)cs1
Response: 4.74

###

Test system: Schistosoma mansoni
Assay: Antischistosomal activity against Schistosoma mansoni assessed as mortality at 50 ug/ml after 24 hrs by microscopic analysis
Assay type: functional
I'd appreciate it if you marked entries true when mortality at 50 µg/mL is lower than 10% and false when it is not.

MOLECULE	DISCRETE LABEL
Nc1nc(-c2nnc(S)n2-c2ccc(Cl)cc2)cs1	true

Here is another molecule to look at.
Prompt: Report whether reported mortality at 50 µg/mL is lower than 10% (strictly) for Nc1nc(-c2nnc(S)n2-c2ccccc2)cs1
Response: false

###

Tested on: Schistosoma mansoni
Test: Antischistosomal activity against Schistosoma mansoni assessed as mortality at 50 ug/ml after 24 hrs by microscopic analysis
Assay type: functional
Lab note: anything with mortality at 50 µg/mL below 60% is marked 1.0; values at 60% or higher are marked 0.0.

Solved entries:
COMPOUND	DISCRETE LABEL
O=C(C1CCCCC1)N1CC(=O)N2CCc3ccccc3C2C1 (stereo unspecified)	0.0
COc1ccc(-n2c(S)nnc2-c2csc(N(C(C)=O)C(C)=O)n2)cc1	1.0
CC(=O)N(C(C)=O)c1nc(-c2nnc(S)n2-c2ccc(Oc3ccccc3)cc2)cs1	0.0
Cc1ccc(-n2c(S)nnc2-c2csc(N)n2)cc1	1.0
Nc1nc(-c2nnc(S)n2-c2ccc(Oc3ccccc3)cc2)cs1	1.0

Switching to the query record.
Prompt: Please indicate whether the reported mortality at 50 µg/mL of COc1ccc(-n2c(S)nnc2-c2csc(N(C(C)=O)C(C)=O)n2)c(OC)c1 is strictly below 60%.
Response: 1.0
